assay info: qHTS assay to identify small molecule inhibitors of chordoma cells - UCH-1 (AID 1259355); also: nearly all actives have a fitted effect of over 55% in size
condition set: UCH-1 chordoma viability, CellTiter-Glo, 48 h, combination, with auranofin plus four topoisomerase inhibitors; series mostly up to 46.1 µM
Inconclusive results are not listed. Activity calls are given as the source filed them. Calls follow the shape of the dose curve; as a rule, active = well fitted cell-killing curve with a large enough effect; inconclusive = small, poorly fitted or top-dose-only effect, or effect the other way; inactive = no such curve, though single readings can be large or run the other way.
reported endpoint: outcome

molecule	reported endpoint	recorded result
CC(C)C[C@@H](NC(=O)[C@@H](O)[C@H](N)Cc1ccccc1)C(=O)O	outcome	inactive
CCCCC/C=C\CCC(=O)N[C@H]1[C@H](Oc2c3cc4cc2Oc2ccc(cc2Cl)[C@@H](O[C@@H]2O[C@H](CO)[C@@H](O)[C@H](O)[C@H]2NC(C)=O)[C@@H]2NC(=O)[C@H](NC(=O)[C@@H]4NC(=O)[C@H]4NC(=O)[C@@H](Cc5ccc(c(Cl)c5)O3)NC(=O)[C@H](N)c3ccc(O)c(c3)Oc3cc(O)cc4c3)c3ccc(O)c(c3)-c3c(O[C@H]4O[C@H](CO)[C@@H](O)[C@H](O)[C@@H]4O)cc(O)cc3[C@@H](C(=O)O)NC2=O)O[C@H](CO)[C@@H](O)[C@@H]1O	outcome	inactive
CC(C)=CCC/C(C)=C/CC/C(C)=C/CC/C(C)=C/CC1=C(C)C(=O)c2ccccc2C1=O	outcome	inactive
CC(C)=CCC/C(C)=C/C=C/C(C)=C/C=C/C(C)=C/C=C/C=C(C)/C=C/C=C(C)/C=C/C=C(\C)CCC=C(C)C	outcome	inactive
CC(=O)c1ccc2c(c1)N(CCCN1CCN(CCO)CC1)c1ccccc1S2	outcome	inactive
C=CC(C)(O)CC/C=C(\C)CCC=C(C)C (stereo unspecified)	outcome	inactive
